Tested on: Saccharomyces cerevisiae
Test: protein stability index of tFT-peptide fusion (C-terminal peptide) (PSI (0-1 scale)); higher = more stable (slower turnover);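 also: PSI is a weighted mean of sequencing reads over stability bins, variants kept only with over 10 reads, mCherry proximal and sfGFP distal, peptide attached via GGGS linker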
Conditions: genetic background: das1 deletion; temperature: 30 C
Cut-off 0.4 on protein stability index, inclusive. At or above means Satisfied; below means Not satisfied.

As a guide, the following entries are already answered.
| item sequence | class assignment |
| --- | --- |
| VCLRICLVTLMM | Not satisfied |
| KLKDLTRIKIFR | Satisfied |
| PLFFGVQAFGGV | Satisfied |
| QGPHISQYRTHR | Satisfied |

Could you verify whether the entry `LLCLCSLPVFAS` shows protein stability index of no less than 0.4?
Not satisfied

----------
System: Saccharomyces cerevisiae
Assay: protein stability index of tFT-peptide fusion (C-terminal peptide) (PSI (0-1 scale)); higher = more stable (slower turnover)
Conditions: genetic background: wild type; temperature: 30 C
Overview of reported protein stability index across a group of sequences:
// keep it numeric: no unit symbol after the value

| item sequence | protein stability index |
| --- | --- |
| AARRVARTTSFC | 0.673 |
| VVRYGGVIAFRG | 0.596 |
| RTWFTYMSIPVW | 0.343 |
| NVGEWGTAVMSR | 0.684 |
| SSLEGMRSGLCR | 0.69 |

GET protein stability index | system: Saccharomyces cerevisiae | item: `GRGLFRVVGLWV`
0.614

GET protein stability index | system: Saccharomyces cerevisiae | item: `EMPQNSKKNQAA`
0.672

----------
Overview of reported protein stability index across a group of sequences:
Tested on: Saccharomyces cerevisiae
Experiment: protein stability index of tFT-peptide fusion (C-terminal peptide) (PSI (0-1 scale)); higher = more stable (slower turnover)
Settings: genetic background: wild type; temperature: 30 C
// keep it numeric: no unit symbol after the value

Answered cases to consult:
| item sequence | protein stability index |
| --- | --- |
| GVRDGGTRGSEG | 0.701 |
| SPPALPRPPRRP | 0.708 |
| RSHRGSPCPLVP | 0.69 |
| AGRGGRAGGGWR | 0.668 |
| IKTKREKNGVSS | 0.722 |

Please report protein stability index for the following sequence: `PLLPPLPATSHT`
0.786

Please report protein stability index for the following sequence: `GGWKINYVEENR`
0.663

Please report protein stability index for the following sequence: `PPHAAPPHICWQ`
0.727

Please report protein stability index for the following sequence: `PAPSASPPLLRC`
0.722

Please report protein stability index for the following sequence: `GGGNRGTGCDWG`
0.628

----------
Overview of reported protein stability index across a group of sequences:
Tested on: Saccharomyces cerevisiae
Experiment: protein stability index of tFT-peptide fusion (C-terminal peptide) (PSI (0-1 scale)); higher = more stable (slower turnover)
Conditions: genetic background: wild type; temperature: 30 C
// keep it numeric: no unit symbol after the value

| item sequence | endpoint name | measurement |
| --- | --- | --- |
| LFPPFPPFSFSP | protein stability index | 0.798 |
| RFAFLPPPPLPP | protein stability index | 0.636 |
| LLGLWSFLIPPS | protein stability index | 0.677 |

GET protein stability index | system: Saccharomyces cerevisiae | item: `SSLLPLLVPLAP`
0.723

GET protein stability index | system: Saccharomyces cerevisiae | item: `VELCLREKQIQL`
0.675

GET protein stability index | system: Saccharomyces cerevisiae | item: `GETGGRSQDARI`
0.744

GET protein stability index | system: Saccharomyces cerevisiae | item: `TFRKMEKKKDGG`
0.652

GET protein stability index | system: Saccharomyces cerevisiae | item: `SASSESTFLRAR`
0.641
